# targetUnderTest: human somatostatin receptor subtype 5 (Homo sapiens, UniProt P35346)
# Construct: expressed in transfected cells
# Sequence (P35346 whole entry): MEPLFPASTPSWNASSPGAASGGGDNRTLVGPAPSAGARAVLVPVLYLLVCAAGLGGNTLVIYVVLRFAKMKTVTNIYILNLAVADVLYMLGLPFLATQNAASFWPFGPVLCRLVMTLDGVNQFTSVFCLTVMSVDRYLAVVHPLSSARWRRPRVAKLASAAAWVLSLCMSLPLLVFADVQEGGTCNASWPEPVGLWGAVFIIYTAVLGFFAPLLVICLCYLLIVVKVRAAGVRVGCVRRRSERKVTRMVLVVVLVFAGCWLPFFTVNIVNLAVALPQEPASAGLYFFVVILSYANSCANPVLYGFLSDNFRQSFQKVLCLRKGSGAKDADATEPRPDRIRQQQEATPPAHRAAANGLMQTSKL
# assayExplanation: cAMP assay for SST5R (inhibition of cAMP in CHO-K1 cells)
# Format: cell-based
# conditions: Table B; class symbols; SST5 receptor over SST2 receptor
measurementKind: Fold selectivity for SST5 vs SST2

# molecule, dataValue
data = [
    ("CC(NC(=O)c1cnc(C#N)c(-c2cc(F)cc(F)c2)c1N1CC[C@H](N)C1)C(F)(F)F (stereo partly shown)", "++ (++=100 to 499)"),
    ("Cc1ncc(C(=O)N[C@@H](C)C2CC2)c(N2CC[C@](C)(N)C2)c1-c1cc(F)cc(Cl)c1", "+++ (+++=>500)"),
    ("C[C@]1(N)CCN(c2c(C(=O)NC34CC(C3)C4)cncc2-c2cc(F)cc(F)c2)C1", "++ (++=100 to 499)"),
    ("C[C@]1(N)CCN(c2c(C(=O)NC3CCCCC3)ccnc2-c2cc(F)cc(F)c2)C1", "+++ (+++=>500)"),
]
